Reported Kd values follow for various variants
B1: Microcin V (MccV), mature, wildtype [modified: biotinylated (EZ-Link Sulfo-NHS-LC kit) for BLI and ELISA; not labelled for cryo-EM and SV-AUC; biotinylated (EZ-Link Sulfo-NHS-LC kit) for BLI and ELISA; not labelled for cryo-EM … (parent)
chain 1: VDDDGETMVVTASSVEQNLKDAPASISVITQEDLQRKPVQNLKDVLKEVPGVQLTNEGDNRKGVSIRGLDSSYTLILVDGKRVNSRNAVFRHNDFDLNWIPVDSIERIEVVRGPMSSLYGSDALGGVVNIITKKIGQKWSGTVTVDTTIQEHRDRGDTYNGQFFTSGPLIDGVLGMKAYGSLAKREKDDPQNSTTTDTGETPRIEGFSSRDGNVEFAWTPNQNHDFTAGYGFDRQDRDSDSLDKNRLERQNYSVSHNGRWDYGTSELKYYGEKVENKNPGNSSPITSESNTVDGKYTLPLTAINQFLTVGGEMRHDKMSDAVNLTGGTSSKTSASQYALFVEDEWRIFEPLALTTGVRMDDHETYGEHWSPRAYLVYNATDTVTVKGGWATAFKAPSLLQLSPDWTSNSCRGACKIVGSPDLKPETSESWELGLYYMGEEGWLEGVESSVTVFRNDVKDRISISRTSDVNAAPGYQNFVGFETGANGRRIPVFSYYNVNKARIQGVETELKIPFNDEWKLSINYTYNDGRDVSNGENKPLSDLPFHTANGTLDWKPLALEDWSMYMSGHYTGQKRADSATAKTPGGYTIWNTGAAWQVTKDVKLRAGVLNLGDKDLSRDDYSYNEDGRRYFMAVDYRF
chain 2: ASGRDIAMAIGTLSGQFVAGGIGAAAGGVAGGAIYDYASTHKPNPAMSPSGLGGTIKQKPEGIPSEAWNYAAGRLCNWSPNNLSDVCL

- Variants of: B1
- Method Notes: BLI
- Run Conditions: with 4-Met substituted E. coli Cir (colicin Ia receptor), 100 nM biotinylated MccV loaded onto streptavidin-coated sensors, probed with dilutions of Cir, PBS-T
Result Type: Kd

1) chain 2 ASGRDIAMAIGTLSGQFVAGGIGAAAGGVAGGAIYDYASTHKPNPAMSPSGLGGTIKQKPEGIPSEAWNYAAGRLCNWSPNNLSRVCL ... 692 nM
2) chain 2 ASGRDIAMAIGTLSGQFVAGGIGAAAGGVAGGAIYDYASTHKPNPAMSPSGLGGTIKQKPEGIPSEAWNYAAGRLCNWSPNNLSAVCL ... 888 nM
